- ASSAY PROCEDURE: HepG2 liver cancer cell viability effects, profiling panel, resazurin fluorescence, 24 h, PK04 Diversity Set (AID 1172); further: test concentration not given here
- SETTINGS: higher = more signal
READOUT: z-score
A bare number is all that is needed in reply.

CN(C)c1ccc(C(O)C2C=CC3C(=O)N(c4ccccc4)C(=O)C3N2Nc2ccc([N+](=O)[O-])cc2)cc1 (stereo not given) : -0.529
CC(CO)N1C(=O)[C@@H]2[C@H]3C(=O)OCC=C[C@H]3OC23C=CCN(C(C)(C)C)C(=O)[C@@H]13 (stereo not given in full) : 0.0792
C=C(C)c1cc2c(c(CCCCCC)n1)[Si](C(C)C)(C(C)C)OC2 : -0.0592
CC(C)N1CC=CC23O[C@@H]4C=CCOC(=O)[C@@H]4[C@H]2C(=O)N(CCCO)[C@@H]3C1=O (stereo not given in full) : -0.128
COC(=O)C1=CC(CCCO)=CC(C2CC2)N(C)C=C1C(=O)OC (stereo not given) : 0.421

Briefly, z-score measured for CC(CO)N1C(=O)[C@@H]2[C@H]3C(=O)OCC=C[C@H]3OC23C=CCN(CCN2CCOCC2)C(=O)[C@@H]13 (stereo not given in full) : 0.0843

Per the record, `CN(C)C(=O)[C@@]1(CCS(=O)(=O)c2ccccc2)N=C(c2ccc(OCCCO)cc2)O[C@H]1c1ccccc1` has z-score of 0.29

`C=CCOC(=O)[C@H]1[C@@H]2C(=O)O[C@@H](c3ccccc3)[C@@H](c3ccccc3)N2[C@@H](c2ccc(OCCOC(=O)[C@H]3C[C@H]4C(=O)N[C@@H](CC(C)C)C(=O)N4[C@H]3c3cccc(OCCO)c3)cc2)[C@]12C(=O)Nc1ccc(I)cc12` yielded z-score of -0.054

Entry `CCOC(=O)C[C@H]1[C@H](OC(=O)c2ccccc2-c2ccccc2)[C@@H](NC(=O)C2CCCCC2)c2cc(OCCCO)ccc2N1C(=O)Cc1ccc(OC)cc1` ; z-score = -0.18

Please fill in: z-score reported for `C[N+](C)(C)CCCCCCNC(=O)[C@H]1C[C@H]2C(=O)N[C@@H](Cc3ccccc3)C(=O)N2[C@H]1c1ccc(O)cc1` = -0.324

z-score for `COc1ccc([Si](C)(C)[C@@H]2[C@@H](CCO)O[C@]3(C(=O)N(Cc4ccc(N5CCCCC5=O)cc4)c4ccccc43)[C@H]2C)cc1` is -0.723

====

- ASSAY PROCEDURE: Plasmodium falciparum growth inhibition, primary screen, strain 3D7, DAPI fluorescence, 100 nL (AID 1184);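 further: parasites grown inside human red blood cells in medium with human serum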
- SETTINGS: P. falciparum 3D7 growth, 3 d, higher = more signal
READOUT: z-score
# answer = number (no unit)

COC(=O)[C@@]1(Cc2ccccc2)[C@H]2c3cc(C(=O)N(C)C)n(CCc4ccc(O)c(OC)c4)c3C[C@H]2CN1C(=O)c1ccccc1 : 0.692
CC(CO)N1C(=O)[C@@H]2[C@H]3C(=O)OCC=C[C@H]3OC23C=CCN(CCN2CCOCC2)C(=O)[C@@H]13 (stereo partly specified) : 0.177
C[C@H]1NC(=O)[C@@]23C(=O)N[C@@H](Cc4ccccc4)C2[C@H](C)[C@@]2(C)O[C@H]2C3/C=C/C/C=C\CNC(=O)[C@H](Cc2ccccc2)NC1=O (stereo partly specified) : -1.4
C=CCOC(=O)[C@H]1[C@@H]2C(=O)O[C@@H](c3ccccc3)[C@@H](c3ccccc3)N2[C@@H](c2ccc(OCCOC(=O)[C@@H]3C[C@@H]4C(=O)N5CCC[C@H]5C(=O)N4[C@@H]3c3ccc(O)cc3)cc2)[C@]12C(=O)Nc1ccc(I)cc12 : -1.64
COCCOC(=O)N1C(=O)[C@@]2(c3cc(C#CCCO)ccc31)[C@H](c1ccccc1OCCO)N1[C@H](c3ccccc3)[C@H](c3ccccc3)OC(=O)[C@H]1[C@@H]2C(=O)Nc1nc2ccccc2s1 : -1.45

For `CC(C)C[C@@H]1NC(=O)[C@@H]2C[C@H](C(=O)NCCCCN(C)C)[C@H](c3cccc(OCCO)c3)N2C1=O` the compound record lists z-score as -0.192
